Hey, just so you know, these numbers are from paper PMC12133982.

Molecular target: HLA-C0602 (Homo sapiens, UniProt P10321, A176E/A330V/C350S/L171W/L180W/L218V/M285V/M309V/M331V/N104K/P208H/Q277E/Q291P/R121W/S101N/S123Y/S297R/T329A/T363A/V319A/V328M)
Assay: Competitive peptide binding assay, CIR-C0602
Peptide text beside a SMILES is read from it.
Quick reference: IC50 of the listed items.

Some molecules with recorded IC50:
CC(C)C[C@H](NC(=O)[C@H](C)NC(=O)[C@@H](NC(=O)[C@H](Cc1ccccc1)NC(=O)[C@H](Cc1c[nH]c2ccccc12)NC(=O)[C@H](CO)NC(=O)[C@H](C)NC(=O)[C@@H](NC(=O)[C@@H](N)CC(N)=O)[C@@H](C)O)[C@@H](C)O)C(=O)O [Epitope M56, NTASWFTAL] (H-NTASWFTAL-OH; N-terminus and C-terminus assumed)	> 15 µM
CC[C@H](C)[C@H](N)C(=O)N[C@H](C(=O)N[C@@H](CC(=O)O)C(=O)N[C@@H](C)C(=O)N[C@H](C(=O)N[C@@H](CC(=O)O)C(=O)N[C@@H](CS)C(=O)N[C@@H](C)C(=O)N[C@@H](CC(C)C)C(=O)O)C(C)C)[C@@H](C)O [Epitope M161, ITDAVDCAL] (H-ITDAVDCAL-OH; N-terminus and C-terminus assumed)	> 15 µM

*Q* Param item = CC[C@H](C)[C@H](NC(=O)[C@H](Cc1ccccc1)NC(=O)[C@@H](N)Cc1ccc(O)cc1)C(=O)N[C@@H](C)C(=O)N[C@@H](CO)C(=O)N[C@@H](Cc1ccccc1)C(=O)N[C@@H](CCCNC(=N)N)C(=O)N[C@@H](CC(C)C)C(=O)N[C@@H](Cc1ccccc1)C(=O)O [Epitope M107] (H-YFIASFRLF-OH; N-terminus and C-terminus assumed) ; retrieve measured IC50.
*A* > 15 µM
